# SUBJECT OF TEST: C3b (UniProt P01024)
# PROTOCOL: SPR, target amine-coupled to chip, single cycle kinetics, 1:1 Langmuir fit
PROPERTY LABEL: Kd

[[record]]
binder = "polypeptide comprising the amino acid sequence of SEQ ID NO: 33 (designed binder) MVKVKFAATGEEKEVETSKIANVYRVGKDVLFSYDDQGKIGWGYVSEKDAPKELLDLLARAEREK"
value = "0.16 nM"

[[record]]
binder = "polypeptide comprising the amino acid sequence of SEQ ID NO: 34 (designed binder) MVKVKFDATGEEKEVETSKISAVYRTGKDVLFSYDDQGKIGWGYVSEKDAPKELLDLLARAEREK"
value = "0.42 nM"


Now, please, on to the next binder.
Summary for this binder, polypeptide having the amino acid sequence of SEQ ID NO: 27 (designed binder) MVKVKFEATGEEKEVDTSKIYQVYRSGKEVLFTYDDNGKTGWGYVSEKDAPKELLDMLARAEREK : Kd is 1.92 nM
